The measured values listed here are drawn from ChEMBL document CHEMBL3507680.

Each entry below carries its reported cytotoxicity at 70.5 h.
assay: Human HepG2 cell viability assay in 384 well format; type: toxicity, cell-based; set-up: dose 125 nL, time 70.5 hour; concentration not given beside the values; conditions: HepG2 cells, read-out: Inhibition
Expressed in %, but write only the number.

In the examples that follow, each entry is paired with its recorded cytotoxicity at 70.5 h.
{"columns": ["Compound", "Obs value"],
 "data": [
  ["O=C(O)C1CCCN(C(=O)CCn2ccc3c(Br)cccc32)C1 (centres undefined)", -12.2],
  ["COc1ccc(C2Nc3ccccc3NC3=C2C(=O)NC3)cc1OC (centres undefined)", -7.99],
  ["CCC(CN1CCOCC1)NC(=O)Cc1c(C)[nH]c2cc(C)cc(C)c12 (centres undefined)", 0.203],
  ["CN(CC1(O)CCN(c2ccnc3ccncc23)CC1)C(=O)CCN", -6.66],
  ["Cc1ccc(N2CCC3(CCN(C(=O)C4CCOC4)CC3)CC2)nn1 (centres undefined)", -3.84],
  ["CCS(=O)(=O)N(C)c1ccc(C(=O)N2CCCC(C)C2)cc1 (centres undefined)", -7.21],
  ["CO[C@H]1CCN(C(=O)c2ccc3[nH]nnc3c2)C[C@@]12CCCO2", -6.86],
  ["CNc1cc(C2CN(CC(=O)N(C)C)CCO2)nc(C)n1 (centres undefined)", -5.66],
  ["COc1ccc(C2=Nn3c(CCN)nnc3-c3ccccc3C2)cc1", 8.3],
  ["CN1CCN([C@@H]2CCN(Cc3ccc4cc(F)ccc4n3)C[C@H]2O)CC1", -1.96]
]}

State the recorded cytotoxicity at 70.5 h for this entry: CCCn1nc(C)c2c1NC(=O)CC2c1ccc(CN2CCCC2)s1 (centres undefined)
-9.08

Can you check `COCC(=O)Nc1ccc2c(c1)C1(CCOCC1)CN2CCF` next?
16.5

* * *

Each entry below carries its reported cytotoxicity at 70.5 h.
assay: Human HepG2 cell viability assay in 384 well format; format: toxicity, cell-based; set-up: dose 125 nL, time 70.5 hour; concentration not given beside the values; details: HepG2 cells, read-out: Inhibition
Write the quantity with the unit trailing the number.

In the examples that follow, each entry is paired with its recorded cytotoxicity at 70.5 h.
{"columns": ["Compound", "cytotoxicity at 70.5 h"],
 "data": [
  ["c1ccc(C(Cn2cccn2)Nc2cnccn2)cc1 (stereo not given)", "-12.5%"],
  ["CCc1cnc(CN(C)C2CCN(CC3CCC3)C2)o1 (stereo not given)", "8.96%"],
  ["CCC(C)CN1CCC(n2cc(C3CCCCC3)nn2)CC1 (stereo not given)", "14.7%"],
  ["COc1ccc(-c2c[nH]c([C@@H]3COCCN3)n2)cc1", "1.65%"],
  ["O=C(NCCc1cscn1)c1coc(CN2CCOCC2)c1", "-8.02%"],
  ["CN1CCCC1CCn1ccnc1-c1nc(-c2ccccc2)no1 (stereo not given)", "16.5%"],
  ["Cc1ccc(NC(=O)c2cccc(N(C)C)c2)nc1", "-8.66%"],
  ["CC(C)n1cnnc1CN(C)C1CCCNC1 (stereo not given)", "-10.1%"],
  ["CC(C)c1ccc(CCC(=O)N(C)C2CCN(C)C2=O)cc1 (stereo not given)", "-1.43%"],
  ["O=C(O)C[C@@H]1CCN(C(=O)c2cccs2)C[C@@H]1CCN1CCCCC1", "-3.9%"]
]}

State the recorded cytotoxicity at 70.5 h for this entry: `CCN(CC)c1ccc(CNC(=O)c2ccccn2)cn1`
10.8%

Can you check c1nc(C2CCCCO2)ncc1CN1CCOCC1 (stereo not given) next?
-4.04%

Can you check O=C(CCN1CCOC(C(F)(F)F)C1)NCc1ccc(Cl)cc1 (stereo not given) next?
-0.312%

Can you check `COc1cccc2c1OCCCN(c1nc3c(c(=O)[nH]1)CCNCC3)C2` next?
-3.8%

Can you check Cc1noc(C2CCC3(CCN(C(=O)C4=CCCCC4)CC3)O2)n1 (stereo not given) next?
-6.87%

Can you check CN(c1ccncn1)C1CC2(CCN(C(=O)CCc3cccs3)C2)C1 (stereo not given) next?
-10.3%

Can you check Cc1cc(C2CCCN(Cc3nc(Cc4ccccc4)no3)C2)n[nH]1 (stereo not given) next?
-10.9%
